B1: glmS ribozyme (parent)
chain: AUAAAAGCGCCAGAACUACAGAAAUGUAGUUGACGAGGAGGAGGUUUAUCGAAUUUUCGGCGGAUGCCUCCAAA

# Variants of: B1
# Assay Overview: self-cleavage kobs at 640 uM GlcN6P; higher = faster cleavage; RNA array
# Run Conditions: with glucosamine-6-phosphate
This sample holds only a part of the variants without activity.
variants and their reported self-cleavage kobs at 640 uM GlcN6P
Write the number in s⁻¹ without appending the unit.

Mutant Name | Experimental Endpoint | Number
U69C C70U | self-cleavage kobs at 640 uM GlcN6P | 0.000254
U47G U65C | self-cleavage kobs at 640 uM GlcN6P | 7.88e-05
A12G C71A | self-cleavage kobs at 640 uM GlcN6P | 7.45e-05
A14U C50A U54G G62A C68U | self-cleavage kobs at 640 uM GlcN6P | 7.62e-05

The recorded self-cleavage kobs at 640 uM GlcN6P for C16A A64G is 0.000277
